Reference source: patent US20170216329A1

- Test system: A2780 ovarian cancer cells (p53 wild-type)
- procedure-details: Cell viability after 72 hours, A2780
- Format: cell-based
pIC50: −log10 of the molar value.
value-type: pIC50

{"compound": "CCCCCCCCCCCCC/C=C/[C@@H](O)[C@H](CO)NC(=O)CCCCC [C6-Cer, C6-Ceramide]", "value-reported": 6.05}
